# target-or-test-system: 5α-reductase (Homo sapiens)
# Construct: Frozen human prostates were thawed on ice and minced with scissors into small pieces; from tissue; host or cells: human prostate (frozen), washed 140,000×g membrane pellet
# Sequence (P31213 1-254): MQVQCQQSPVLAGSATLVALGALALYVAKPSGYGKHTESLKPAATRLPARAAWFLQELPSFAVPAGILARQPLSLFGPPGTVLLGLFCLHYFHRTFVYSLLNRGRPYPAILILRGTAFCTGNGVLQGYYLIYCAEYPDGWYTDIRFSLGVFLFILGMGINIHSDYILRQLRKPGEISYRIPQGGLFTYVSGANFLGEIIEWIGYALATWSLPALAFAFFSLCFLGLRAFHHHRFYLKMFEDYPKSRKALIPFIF
# procedure-text: inhibitory activity on 5α-reductase from human prostates (conversion of 14C-testosterone to DHT)
# Assay type: biochemical
# condition-details: human prostatic 5α-reductase, pH 5.0, 1 μM 14C-testosterone, 1 mM NADPH, 30 min at 37° C.; Table 1
recorded-endpoint: IC50 (µM)

Solved cases below.
Cn1c(CC(=O)O)ccc1C(=O)CCCCc1ccccc1 | 0.84
Cn1c(CC(=O)O)ccc1C(=O)c1ccc(-c2cccs2)cc1 | 0.023
Cn1c(CC(=O)O)ccc1C(=O)c1ccc(-n2cccc2)cc1 | 0.16

(1) Cn1c(CC(=O)O)ccc1C(=O)c1ccc(-c2ccccc2)cc1
(2) Cn1c(CC(=O)O)ccc1C(=O)C1CCC(c2ccccc2)CC1 (stereo not shown)
(3) O=C(O)Cc1ccc(C(=O)c2ccc(-c3ccccc3)cc2)s1
Your job: order these 3 records by IC50, ascending. Submit the labels in the order that the ranking request calls for.
1, 2, 3

(a) Cn1c(CC(=O)O)ccc1C(=O)c1ccc(C2CCCCC2)cc1
(b) Cc1cc(C(=O)c2ccc(CC(=O)O)n2C)ccc1-c1ccccc1
(c) Cn1c(CC(=O)O)ccc1C(=O)c1ccc(C(=O)c2ccccc2)cc1
(d) Cn1c(CC(=O)O)ccc1C(=O)c1ccc(-c2cc(Cl)cc(Cl)c2)cc1
Please rank these compounds by IC50 in descending order. Answer by listing the labels in the order asked for.
d, c, b, a
(d: 0.63 µM, c: 0.21 µM, b: 0.092 µM, a: 0.02 µM)

(1) Cn1c(CC(=O)O)ccc1C(=O)c1ccc(-c2ccc(Br)s2)cc1
(2) Cn1c(CC(=O)O)ccc1C(=O)c1ccc(-c2ccc(F)cc2)cc1
Rank 1 against 2 by their IC50 values and give the higher one. Kindly state the label of the option you pick.
2
(2: 0.041 µM, 1: 0.024 µM)

(A) CCc1ccc(-c2ccc(C(=O)c3ccc(CC(=O)O)n3C)cc2)cc1
(B) Cn1c(CC(=O)O)ccc1C(=O)c1ccc(CSc2ccccc2)cc1
For A and B , which recorded IC50 is lower? When you have decided, please share the label of that item.
A
